- target-or-system: T. brucei de-N-acetylase (cell-free system) (Trypanosoma brucei, UniProt Q8I8A5)
- assay-method-text: Mass spectrometry based activity assay, trypanosome cell-free system
- Assay type: biochemical
- condition-set: 1 mM; fragment library screen, Table S1; footnote: cell-free system; read-out: Inhibition at 1 mM (%)
Recorded inhibition at 1000 µM for the following compounds
readout: inhibition at 1000 µM (%)

> print(dat)
                                   compound  assay.result
1  O=C(CCc1nc(-c2ccc(Cl)cc2)no1)NO [compound 514]            54
2  O=C(NO)C1CCN(c2ncc(C(F)(F)F)cc2Cl)CC1 [compound 513]            54
3  O=C(CCCOc1ccc(Cl)cc1Cl)NO [compound 508]            67
4       COc1ccc(NC(=O)NO)cc1 [compound 503]            53

---

- target-or-system: T. brucei de-N-acetylase (cell-free system) (Trypanosoma brucei, UniProt Q8I8A5)
- assay-method-text: Mass spectrometry based activity assay, trypanosome cell-free system
- Type: biochemical
- condition-set: read-out: Inhibition at 1 mM (%)
Recorded inhibition at 1000 µM for the following compounds
readout: inhibition at 1000 µM (%)

> print(dat)
                                   compound  assay.result
1                           O=C(O)c1ccccc1O            25
2  CCCCCCCCCCCCCCCCCC(=O)Nc1ccc(O)c(C(=O)NO)c1 [compound 23, N,2-Dihydroxy-5-stearamidobenzamide]            25
3          O=C(NO)c1cc(NC(=O)C2CCOCC2)ccc1O            56
4  O=C(Nc1ccc(O)c(C(=O)NO)c1)c1ccc(-c2ccccc2)cc1            75
5          O=C(NO)c1cc(NC(=O)C2CCCCC2)ccc1O            99

---

Recorded inhibition at 1000 µM for the following molecules
- target-or-system: T. brucei de-N-acetylase (cell-free system) (Trypanosoma brucei)
- assay-method-text: Mass spectrometry based activity assay, trypanosome cell-free system
- Format: biochemical
- condition-set: 1 mM; cell-free system; Table 1, commercially available analogues of 1; read-out: Inhibition at 1 mM (%)
readout: inhibition at 1000 µM (%)

> print(dat)
     compound.structure  measure.unit  assay.result
1   O=C(NO)c1ccc(Br)cc1             %           9.6
2     O=C(NO)c1ccccc1Br             %            -4
3      Nc1ccccc1C(=O)NO             %            -5
4       O=C(NO)c1ccccc1             %            -6
5  O=C(NO)c1ccc(Br)cc1O             %            86

---

- target-or-system: T. brucei de-N-acetylase (cell-free system) (Trypanosoma brucei)
- assay-method-text: Mass spectrometry based activity assay, trypanosome cell-free system
- Format: biochemical
- condition-set: read-out: Inhibition at 1 mM (%)
- Protocol: Inhibition assays were performed in 100 μL final volume, with 1% v/v DMSO with or without inhibitor. […] Enriched glycolipids were analysed by liquid chromatography coupled to an electrospray tandem mass spectrometer (LC–MS/MS). […] The glycolipids were analysed on an electrospray triple quadrapole mass spectrometer (Micromass Quattro Ultima) in multiple reaction monitoring mode. […]
readout: inhibition at 1000 µM (%)

> print(dat)
                                   molecule                readout  assay.result
1  O=C(Nc1ccc(O)c(C(=O)NO)c1)c1ccc2c(c1)OCO2  inhibition at 1000 µM            86
2  CC(=O)N1CCC(C(=O)Nc2ccc(O)c(C(=O)NO)c2)CC1  inhibition at 1000 µM            40
3  O=C(Nc1ccc(O)c(C(=O)NO)c1)c1ccccc1 [compound 21, 5-Benzamido-N,2-dihydroxybenzamide]  inhibition at 1000 µM            96
4     Cc1ccc(C(=O)Nc2ccc(O)c(C(=O)NO)c2)cc1  inhibition at 1000 µM            62
5  O=C(NO)c1ccccc1O [compound 1, salicylic hydroxamic acid]  inhibition at 1000 µM            97
6                   O=C(COc1ccc(Cl)cc1Cl)NO  inhibition at 1000 µM            62

---

- target-or-system: recombinant T. brucei GlcNAc-PI de-N-acetylase (GST-TbGPI12) (Trypanosoma brucei)
- Sequence (Q8I8A5 entry or part of it): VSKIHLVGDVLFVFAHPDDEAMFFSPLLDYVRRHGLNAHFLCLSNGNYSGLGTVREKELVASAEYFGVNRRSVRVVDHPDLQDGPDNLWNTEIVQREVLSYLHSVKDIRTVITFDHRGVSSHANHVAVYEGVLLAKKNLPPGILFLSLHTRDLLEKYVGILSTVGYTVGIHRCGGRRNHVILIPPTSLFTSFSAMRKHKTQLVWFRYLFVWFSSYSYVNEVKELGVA
- assay-method-text: Mass spectrometry based activity assay, recombinant GST-TbGPI12
- Format: biochemical
- Experimental: Inhibition assays were performed in 100 μL final volume, with 1% v/v DMSO with or without inhibitor. […]. Enriched glycolipids were analysed by liquid chromatography coupled to an electrospray tandem mass spectrometer (LC–MS/MS). […] The glycolipids were analysed on an electrospray triple quadrapole mass spectrometer (Micromass Quattro Ultima) in multiple reaction monitoring mode. […]
readout: IC50 (µM)

> print(dat)
                                   compound  assay.result
1  O=C(NO)c1ccccc1O [compound 1, salicylic hydroxamic acid]            63

---

Recorded melting point for the following molecules
readout: melting point (°C)

> print(dat)
                                   molecule  measure.unit  assay.result
1  Cc1ccc(C(=O)Nc2ccc(O)c(C(=O)NO)c2)cc1 [compound 22]            °C           209
2  O=C(Nc1ccc(O)c(C(=O)NO)c1)c1ccc2c(c1)OCO2 [compound 27]            °C           209
3  O=C(Nc1ccc(O)c(C(=O)NO)c1)c1ccccc1 [compound 21, 5-Benzamido-N,2-dihydroxybenzamide]            °C           211
4  O=C(NO)c1cc(NC(=O)C2CCOCC2)ccc1O [compound 26]            °C           209
5  O=C(Nc1ccc(O)c(C(=O)NO)c1)c1ccc(-c2ccccc2)cc1 [compound 25]            °C           216

---

Recorded melting point for the following molecules
readout: melting point

> print(dat)
                                   molecule        readout   assay.result
1  CC(=O)N1CCC(C(=O)Nc2ccc(O)c(C(=O)NO)c2)CC1  melting point  211 to 212 °C
2          O=C(NO)c1cc(NC(=O)C2CCCCC2)ccc1O  melting point  229 to 230 °C
3  CCCCCCCCCCCCCCCCCC(=O)Nc1ccc(O)c(C(=O)NO)c1 [compound 23, N,2-Dihydroxy-5-stearamidobenzamide]  melting point  185 to 187 °C
